Target: Gal-3 (Homo sapiens, UniProt P17931)
Construct: made in house
Sequence (P17931 whole entry): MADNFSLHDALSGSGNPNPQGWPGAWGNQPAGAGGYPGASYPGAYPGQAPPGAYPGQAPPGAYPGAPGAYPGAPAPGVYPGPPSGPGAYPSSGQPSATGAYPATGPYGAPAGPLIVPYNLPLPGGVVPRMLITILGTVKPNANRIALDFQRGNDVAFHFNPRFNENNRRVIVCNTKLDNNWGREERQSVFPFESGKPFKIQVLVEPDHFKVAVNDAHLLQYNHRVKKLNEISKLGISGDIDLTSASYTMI
Test: competitive fluorescence polarisation assay, Gal-3
Assay type: binding
Conditions: competitive FP, mean ± SEM of n = 4 to 8, 20 °C; read-out: Kd Gal-3
reported endpoint: Kd (µM)

Example entries begin here.
molecule	reported endpoint	units label	measured number
COC(=O)c1cccc(-n2cc(CO[C@@H]3[C@@H](OCc4nc5ccc(C(=O)O)cc5n4C)[C@@H](O)[C@@H](CO)O[C@@H]3Sc3ccc(Cl)c(Cl)c3)nn2)c1 [Compound 15b]	Kd	µM	22
Cn1c(CO[C@H]2[C@@H](O)[C@@H](CO)O[C@H](Sc3ccc(Cl)c(Cl)c3)[C@@H]2OCC(=O)O)nc2ccc(C(=O)O)cc21	Kd	µM	3.3
Cn1c(CO[C@H]2[C@@H](O)[C@@H](CO)O[C@H](Sc3ccc(Cl)c(Cl)c3)[C@@H]2OCc2cn(-c3ccc(C(=O)O)cc3)nn2)nc2ccc(C(=O)O)cc21 [Compound 16c]	Kd	µM	6.2
Cc1ccc(CO[C@@H]2[C@@H](OCc3nc4ccc(C(=O)O)cc4n3C)[C@@H](O)[C@@H](CO)O[C@@H]2Sc2ccc(Cl)c(Cl)c2)cc1	Kd	µM	5.9
Cn1c(CO[C@H]2[C@@H](O)[C@@H](CO)O[C@H](Sc3ccc(Cl)c(Cl)c3)[C@@H]2OCC2CCCCC2)nc2ccc(C(=O)O)cc21	Kd	µM	21
COC(=O)c1ccc(-n2cc(CO[C@@H]3[C@@H](OCc4nc5ccc(C(=O)O)cc5n4C)[C@@H](O)[C@@H](CO)O[C@@H]3Sc3ccc(Cl)c(Cl)c3)nn2)cc1 [Compound 15c]	Kd	µM	23
Cn1c(CO[C@H]2[C@@H](O)[C@@H](CO)O[C@H](Sc3ccc(Cl)c(Cl)c3)[C@@H]2OCc2ccc(F)cc2)nc2ccc(C(=O)O)cc21	Kd	µM	4.2
Cn1c(CO[C@H]2[C@@H](O)[C@@H](CO)O[C@H](Sc3ccc(Cl)c(Cl)c3)[C@@H]2OCc2ccc(Cl)c(Cl)c2)nc2ccc(C(=O)O)cc21	Kd	µM	12
Cc1cccc(CO[C@@H]2[C@@H](OCc3nc4ccc(C(=O)O)cc4n3C)[C@@H](O)[C@@H](CO)O[C@@H]2Sc2ccc(Cl)c(Cl)c2)c1	Kd	µM	8.2

I: Cn1c(CO[C@H]2[C@@H](O)[C@@H](CO)O[C@H](Sc3ccc(Cl)c(Cl)c3)[C@@H]2OCc2cccc(Cl)c2)nc2ccc(C(=O)O)cc21
II: Cn1c(CO[C@H]2[C@@H](O)[C@@H](CO)O[C@H](Sc3ccc(Cl)c(Cl)c3)[C@@H]2OCc2ccccc2)nc2ccc(C(=O)O)cc21
### Prompt Lab note: record which item had the higher Kd, I or II . To answer, give the label that identifies your chosen option.
### Response I
(I: 5.8 µM, II: 3.7 µM)

###

Molecular target: Gal-3 (Homo sapiens, UniProt P17931)
Construct: made in house
Assay: competitive fluorescence polarisation assay, Gal-3
Format: binding
Settings: competitive FP, mean ± SEM of n = 4 to 8, 20 °C; read-out: Kd Gal-3
reported endpoint: Kd (µM)

molecule	Kd (µM)
CO[C@@H]1[C@@H](OCc2nc3ccc(C(=O)O)cc3n2C)[C@@H](O)[C@@H](CO)O[C@@H]1Sc1ccc(Cl)c(Cl)c1 [Compound 32]	4.5
COC(=O)c1ccccc1-n1cc(CO[C@@H]2[C@@H](OCc3nc4ccc(C(=O)O)cc4n3C)[C@@H](O)[C@@H](CO)O[C@@H]2Sc2ccc(Cl)c(Cl)c2)nn1 [Compound 15a]	4.7
Cn1c(CO[C@H]2[C@@H](O)[C@@H](CO)O[C@H](Sc3ccc(Cl)c(Cl)c3)[C@@H]2OCc2cn(-c3ccccc3C(=O)O)nn2)nc2ccc(C(=O)O)cc21 [Compound 16a]	1.2
Cn1c(CO[C@H]2[C@@H](O)[C@@H](CO)O[C@H](Sc3ccc(Cl)c(Cl)c3)[C@@H]2OCC2CCC2)nc2ccc(C(=O)O)cc21 [Compound 25]	9.4

I: C#CCO[C@@H]1[C@@H](OCc2nc3ccc(C(=O)O)cc3n2C)[C@@H](O)[C@@H](CO)O[C@@H]1Sc1ccc(Cl)c(Cl)c1 [Compound 11]
II: Cn1c(CO[C@H]2[C@@H](O)[C@@H](CO)O[C@H](Sc3ccc(Cl)c(Cl)c3)[C@@H]2OCc2cn(-c3cccc(C(=O)O)c3)nn2)nc2ccc(C(=O)O)cc21 [Compound 16b]
### Prompt Please indicate which item has the smaller measured Kd: I versus II To answer, give the label that identifies your chosen option.
### Response I

###

Molecular target: Gal-8C (Homo sapiens, UniProt O00214)
Construct: than to the C-terminal domain (Gal-8C)
Sequence (O00214 187-317 limits assumed): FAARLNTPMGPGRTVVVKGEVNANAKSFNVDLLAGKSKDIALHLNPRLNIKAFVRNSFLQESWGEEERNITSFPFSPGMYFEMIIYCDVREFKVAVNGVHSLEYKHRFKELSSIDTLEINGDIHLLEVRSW
Assay: competitive fluorescence polarisation assay, Gal-8C
Format: binding
Details: ratio of FP Kd values
reported endpoint: Gal-8C selectivity ratio Kd (Gal-8C)/Kd (Gal-8N)

molecule	measured number
COC(=O)c1ccccc1-n1cc(CO[C@@H]2[C@@H](OCc3nc4ccc(C(=O)O)cc4n3C)[C@@H](O)[C@@H](CO)O[C@@H]2Sc2ccc(Cl)c(Cl)c2)nn1 [Compound 15a]	101
Cc1cccc(CO[C@@H]2[C@@H](OCc3nc4ccc(C(=O)O)cc4n3C)[C@@H](O)[C@@H](CO)O[C@@H]2Sc2ccc(Cl)c(Cl)c2)c1	144
Cn1c(CO[C@H]2[C@@H](O)[C@@H](CO)O[C@H](Sc3ccc(Cl)c(Cl)c3)[C@@H]2OCC2CCC2)nc2ccc(C(=O)O)cc21	239

a: Cn1c(CO[C@H]2[C@@H](O)[C@@H](CO)O[C@H](Sc3ccc(Cl)c(Cl)c3)[C@@H]2OCC(=O)O)nc2ccc(C(=O)O)cc21
b: Cn1c(CO[C@H]2[C@@H](O)[C@@H](CO)O[C@H](Sc3ccc(Cl)c(Cl)c3)[C@@H]2OCc2cccc(Cl)c2)nc2ccc(C(=O)O)cc21
c: Cn1c(CO[C@H]2[C@@H](O)[C@@H](CO)O[C@H](Sc3ccc(Cl)c(Cl)c3)[C@@H]2OCc2cn(-c3ccc(C(=O)O)cc3)nn2)nc2ccc(C(=O)O)cc21 [Compound 16c]
### Prompt Put the molecules in ascending order of Gal-8C selectivity ratio Kd (Gal-8C)/Kd (Gal-8N). When ranking, write the labels in the order the request describes.
### Response b, c, a

###

Target: Gal-3 (Homo sapiens)
Construct: made in house
Test: competitive fluorescence polarisation assay, Gal-3
Type: binding
Set-up: key: n. s.: n.s. = non-soluble at tested concentration; n. b.: n.b. = non-binding up to the highest tested concentration of 1500 µM
Conditions: ester compounds, competitive FP, highest tested concentration 1500 µM
reported endpoint: Kd (Galectin-3)

COC(=O)c1ccc2nc(CO[C@H]3[C@@H](O)[C@@H](CO)O[C@H](Sc4ccc(Cl)c(Cl)c4)[C@@H]3OCc3cccc(C)c3)n(C)c2c1 n. s.
COC(=O)c1ccc2nc(CO[C@H]3[C@@H](O)[C@@H](CO)O[C@H](Sc4ccc(Cl)c(Cl)c4)[C@@H]3OCC3CC3)n(C)c2c1 n. s.
COC(=O)c1ccc2nc(CO[C@H]3[C@@H](O)[C@@H](CO)O[C@H](Sc4ccc(Cl)c(Cl)c4)[C@@H]3OCc3ccc(F)cc3)n(C)c2c1 n. s.

###

Molecular target: Gal-3 (Homo sapiens)
Construct: made in house
Assay: competitive fluorescence polarisation assay, Gal-3
Type: binding
Conditions: ester compounds, competitive FP, highest tested concentration 1500 µM; read-out: Kd (Galectin-3)
pKd: −log10 of the molar value.
reported endpoint: pKd

I: COC(=O)c1ccc2nc(CO[C@H]3[C@@H](O)[C@@H](CO)O[C@H](Sc4ccc(Cl)c(Cl)c4)[C@@H]3OCC(=O)O)n(C)c2c1
II: COC(=O)c1ccc2nc(CO[C@H]3[C@@H](O)[C@@H](CO)O[C@H](Sc4ccc(Cl)c(Cl)c4)[C@@H]3OC)n(C)c2c1
### Prompt Please indicate which item has the smaller measured pKd: I versus II To answer, give the label that identifies your chosen option.
### Response II
(II: 3.96, I: 5.07)

###

Target: Gal-3 (Homo sapiens)
Construct: made in house
Experiment: competitive fluorescence polarisation assay, Gal-3
Assay type: binding
Settings: ratio of FP Kd values
reported endpoint: Gal-3 selectivity ratio Kd (Gal-3)/Kd (Gal-8N)

Example entries begin here.
molecule	measured number
COC(=O)c1cccc(-n2cc(CO[C@@H]3[C@@H](OCc4nc5ccc(C(=O)O)cc5n4C)[C@@H](O)[C@@H](CO)O[C@@H]3Sc3ccc(Cl)c(Cl)c3)nn2)c1 [Compound 15b]	4.9
Cn1c(CO[C@H]2[C@@H](O)[C@@H](CO)O[C@H](Sc3ccc(Cl)c(Cl)c3)[C@@H]2OCc2ccc(Cl)c(Cl)c2)nc2ccc(C(=O)O)cc21 [Compound 8e]	2.8
Cn1c(CO[C@H]2[C@@H](O)[C@@H](CO)O[C@H](Sc3ccc(Cl)c(Cl)c3)[C@@H]2OCc2cn(-c3ccccc3C(=O)O)nn2)nc2ccc(C(=O)O)cc21 [Compound 16a]	2.6
Cn1c(CO[C@H]2[C@@H](O)[C@@H](CO)O[C@H](Sc3ccc(Cl)c(Cl)c3)[C@@H]2OCc2ccccc2)nc2ccc(C(=O)O)cc21 [Compound 8a]	2.5
Cn1c(CO[C@H]2[C@@H](O)[C@@H](CO)O[C@H](Sc3ccc(Cl)c(Cl)c3)[C@@H]2OCc2cccc(Cl)c2)nc2ccc(C(=O)O)cc21 [Compound 8f]	3.2
CO[C@@H]1[C@@H](OCc2nc3ccc(C(=O)O)cc3n2C)[C@@H](O)[C@@H](CO)O[C@@H]1Sc1ccc(Cl)c(Cl)c1 [Compound 32]	3.5

I: COC(=O)c1ccccc1-n1cc(CO[C@@H]2[C@@H](OCc3nc4ccc(C(=O)O)cc4n3C)[C@@H](O)[C@@H](CO)O[C@@H]2Sc2ccc(Cl)c(Cl)c2)nn1 [Compound 15a]
II: Cn1c(CO[C@H]2[C@@H](O)[C@@H](CO)O[C@H](Sc3ccc(Cl)c(Cl)c3)[C@@H]2OCC2CCCCC2)nc2ccc(C(=O)O)cc21 [Compound 19]
III: Cc1ccc(CO[C@@H]2[C@@H](OCc3nc4ccc(C(=O)O)cc4n3C)[C@@H](O)[C@@H](CO)O[C@@H]2Sc2ccc(Cl)c(Cl)c2)cc1 [Compound 8c]
### Prompt Put the molecules in ascending order of Gal-3 selectivity ratio Kd (Gal-3)/Kd (Gal-8N). When ranking, write the labels in the order the request describes.
### Response I, III, II

P: Cn1c(CO[C@H]2[C@@H](O)[C@@H](CO)O[C@H](Sc3ccc(Cl)c(Cl)c3)[C@@H]2OCc2cn(-c3cccc(C(=O)O)c3)nn2)nc2ccc(C(=O)O)cc21 [Compound 16b]
Q: C#CCO[C@@H]1[C@@H](OCc2nc3ccc(C(=O)O)cc3n2C)[C@@H](O)[C@@H](CO)O[C@@H]1Sc1ccc(Cl)c(Cl)c1 [Compound 11]
R: Cn1c(CO[C@H]2[C@@H](O)[C@@H](CO)O[C@H](Sc3ccc(Cl)c(Cl)c3)[C@@H]2OCc2ccc(F)cc2)nc2ccc(C(=O)O)cc21 [Compound 8d]
S: Cn1c(CO[C@H]2[C@@H](O)[C@@H](CO)O[C@H](Sc3ccc(Cl)c(Cl)c3)[C@@H]2OCC(=O)O)nc2ccc(C(=O)O)cc21 [Compound 29]
### Prompt Please list these molecules in decreasing order of Gal-3 selectivity ratio Kd (Gal-3)/Kd (Gal-8N). When ranking, write the labels in the order the request describes.
### Response S, P, R, Q

a: Cn1c(CO[C@H]2[C@@H](O)[C@@H](CO)O[C@H](Sc3ccc(Cl)c(Cl)c3)[C@@H]2OCc2cn(-c3ccc(C(=O)O)cc3)nn2)nc2ccc(C(=O)O)cc21 [Compound 16c]
b: Cc1cccc(CO[C@@H]2[C@@H](OCc3nc4ccc(C(=O)O)cc4n3C)[C@@H](O)[C@@H](CO)O[C@@H]2Sc2ccc(Cl)c(Cl)c2)c1 [Compound 8b]
### Prompt Lab note: record which item had the higher Gal-3 selectivity ratio Kd (Gal-3)/Kd (Gal-8N), a or b . To answer, give the label that identifies your chosen option.
### Response a
(a: 5.6, b: 3.9)
